# maps each entry to its normalized RNA/DNA level with ligand (log10)
B1: library; a variant is named by its letters at N, in order (parent)
chain: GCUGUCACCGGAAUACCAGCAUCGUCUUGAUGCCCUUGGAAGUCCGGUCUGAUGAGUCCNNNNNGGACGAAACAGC

- Variants of: B1
- RUN DESCRIPTION: normalized RNA/DNA level with ligand (relative to sTRSVctl = 100) (log10 (% of sTRSVctl)); higher = less ribozyme self-cleavage, higher mRNA level
- EXPERIMENTAL PARAMETERS: ligand concentration (+) RNA-Seq: 5 mM, HEK293T, reporter: mCherry (pCS4076), ligand present: yes
A bare number is all that is needed in reply.

// below: answered variants
CACAC 2.02
AUCAA 1.95
GUCCU 2.03
CGUAA 2.04
UUACG 2.02
AAUUG 2.02
GAGCU 1.96
AGUCA 1.98

Fill in: normalized RNA/DNA level with ligand (log10) of AGGGU is ___ 2.05
